Reported values of inhibition for individual entries
assay.system: Human immunodeficiency virus type 1 protease (Human immunodeficiency virus 1) (UniProt Q72874)
assay.procedure: Inhibition of recombinant HIV-1 protease (NY-5) using 50 nM
measured.property: inhibition (%)

                          structure_notation  assay_value
 0  CCCc1cccc(C)c1OCC(=O)N[C@@H](Cc1ccccc1)[C@H](O)C(=O)N1CSC[C@H]1C(=O)NC(C)(C)C           35
 1  CCc1c(O)cccc1C(=O)N[C@@H](Cc1ccccc1)[C@H](O)C(=O)N1CSC(C)(C)[C@H]1C(=O)NC(C)(C)C           84
 2  CCc1c(O)cccc1C(=O)N[C@@H](Cc1ccccc1)[C@H](O)C(=O)N1CSC(C)(C)[C@H]1C(=O)NCc1ccccc1C           97
 3  Cc1c(O)cccc1C(=O)N[C@@H](Cc1ccccc1)[C@H](O)C(=O)N1CSC(C)(C)[C@H]1C(=O)NC(C)(C)C           88
 4  Cc1cccc(CNC(=O)[C@@H]2CSCN2C(=O)[C@@H](O)[C@H](Cc2ccccc2)NC(=O)c2cccc(O)c2C)c1           18
 5  Cc1c(O)cccc1C(=O)N[C@@H](Cc1ccccc1)[C@H](O)C(=O)N1CSC(C)(C)[C@H]1C(=O)NCc1ccccc1Cl           95
 6  Cc1cccc(C)c1OCC(=O)N[C@@H](Cc1ccccc1)[C@H](O)C(=O)N1CSC[C@H]1C(=O)NC(C)(C)C           56
 7  Cc1cccc(C)c1OCC(=O)N[C@@H](Cc1ccccc1)[C@H](O)C(=O)N1CSC(C)(C)[C@H]1C(=O)NC(C)(C)C           35
 8  Cc1ccc(CNC(=O)[C@@H]2CSCN2C(=O)[C@@H](O)[C@H](Cc2ccccc2)NC(=O)c2cccc(O)c2C)cc1           13
 9  CCCc1c(O)cccc1C(=O)N[C@@H](Cc1ccccc1)[C@H](O)C(=O)N1CSC[C@H]1C(=O)NC(C)(C)C           17
10  Cc1cccc(C)c1CNC(=O)[C@@H]1CSCN1C(=O)[C@@H](O)[C@H](Cc1ccccc1)NC(=O)c1cccc(O)c1C           75
11  CCc1c(O)cccc1C(=O)N[C@@H](Cc1ccccc1)[C@H](O)C(=O)N1CSC[C@H]1C(=O)NC(C)(C)C           46
12  Cc1ccccc1CNC(=O)[C@H]1N(C(=O)[C@@H](O)[C@H](Cc2ccccc2)NC(=O)c2cccc(O)c2C)CSC1(C)C           96
13  Cc1c(O)cccc1C(=O)N[C@@H](Cc1ccccc1)[C@H](O)C(=O)N1CSC[C@H]1C(=O)NC(C)(C)C           36
14  Cc1c(O)cccc1C(=O)N[C@@H](Cc1ccccc1)[C@H](O)C(=O)N1CSC(C)(C)[C@H]1C(=O)NCc1ccccc1C(F)(F)F           88
15  CCc1cccc(C)c1OCC(=O)N[C@@H](Cc1ccccc1)[C@H](O)C(=O)N1CSC[C@H]1C(=O)NC(C)(C)C           32

###

assay.procedure: Plasma half life was determined in dogs after intravenous administration of 25 mg/kg of the compound.
Assay type: ADME, organism-based, Canis lupus familiaris
Parameters: dose 25 mg/kg, route intravenous
test.settings: dog
measured.property: half-life (h)

>>> print(df.to_string())
                         structure_notation  assay_value
0  Cc1ccccc1CNC(=O)[C@H]1N(C(=O)[C@@H](O)[C@H](Cc2ccccc2)NC(=O)c2cccc(O)c2C)CSC1(C)C         1.57
